# pIC50 per entry
# System: MCF7
# EXPERIMENT DESCRIPTION: Antiproliferative activity against human MCF7 cells assessed as cell viability after 48 hrs MTT assay
# Type: functional, cell-based
# CONDITION CONTEXT: MCF7, 48 h
The quantity pIC50 is defined as the negative base-10 logarithm of the molar concentration.

Cc1cccnc1NC(=O)c1ccc(NC2=C(Cl)C(=O)c3ccccc3C2=O)cc1 :: 5.36
O=C(Nc1cccc2ccccc12)c1ccc(NC2=C(Cl)C(=O)c3ccccc3C2=O)cc1 :: 5.32

Input line: # get_value(readout='pIC50', item= "Cc1csc(NS(=O)(=O)c2ccc(NC3=C(Cl)C(=O)c4ccccc4C3=O)cc2)n1" )
Output line: 5.37
